Reference source: paper PMC6336391

Tested on: A549 cells
Test: MTT toxicity in A549 cells with added BSA
Format: cell-based, human
Conditions: Homo sapiens, A549, read-out: IC50 A549, non-illuminated; BSA 0.6 mM
Parameter: IC50

For the compound `O=C(Nc1cc2ccccc2cc1C(=O)O)c1ccccc1` , the measured IC50 on A549 cells was > 100 µM

---

System: A549 cells
Assay: MTT toxicity in A549 cells with added BSA
Assay type: cell-based, human
Details: read-out: IC50 A549; non-illuminated; BSA 0.6 mM
Parameter: IC50

// IC50 value for `O=C(Nc1cc2ccccc2cc1C(=O)O)c1ccccc1` : > 100 µM
